Overview of reported Screen (variant relative to reference peptide, measured in the pTyr-Var library screen) across a group of sequences:
# Tested on: EPHB1 kinase domain
# assay.name: pTyr-Var library bacterial peptide display kinase screen (enrichment scores)
# Assay type: biochemical, human
# condition: sheet "EPHB1"; variant seq vs reference seq; bacterial peptide display enrichment

sequence | observed
CEQELYSQLVF [WAS_Y102_W97C_YF] | -2.23
FGSIMYEFVGK [SLC18A1_Y251_V249I] | -1.716
DLHGIYQKLVI [TTN_Y21998_R21995H] | 1.244
HAVFIYDICHV [TWNK_Y508_V507I_YF] | 1.032
NSNSDYVDILP [SH2D1B_Y127_V130I] | -0.2012

Query :: // Screen (variant relative to reference peptide, measured in the pTyr-Var library screen) lookup, key: PLDGEYFILQI [TP53_Y327_T329I]
Result :: 0.4645

Query :: Item under review: PLDGEYFTLPI [TP53_Y327_Q331P] . Reported Screen (variant relative to reference peptide, measured in the pTyr-Var library screen)?
Result :: 3.664

Query :: For the sequence PLFGEYFTLQI [TP53_Y327_D324Y_YF] , what Screen (variant relative to reference peptide, measured in the pTyr-Var library screen) is on record?
Result :: 1.054

Query :: Consider the sequence shown here: LPHVIYCRLWC [SMAD2_Y128_R133C] What is its recorded Screen (variant relative to reference peptide, measured in the pTyr-Var library screen)?
Result :: 2.05

====

# Test system: EPHB1 kinase domain
# assay.name: pTyr-Var library bacterial peptide display kinase screen (enrichment scores)
# Format: biochemical, human
# condition: sheet EPHB1; effect of the variant peptide relative to its reference peptide in the pTyr-Var library screen (enrichment scores)
experimental.readout: Screen

sequence | Screen
KELALYDENWF [RPS19_Y48_P47L] | 4.03
ISKTWYSAEQF [CD207_Y217_P213S] | -0.7306
IMNLLYHVVGW [GBA_Y412_T408M] | -0.2669
EPFELYCEMGS [CBL_Y371_Q367P_YF] | -0.3443

Now for a further sequence.
Query :: Fill in: Screen of MARDIYQASFF [LTK_Y672_R673Q_YF] is ___
Result :: 2.318

====

# Test system: EPHB2 kinase domain
# assay.name: pTyr-Var library bacterial peptide display kinase screen (enrichment scores);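 also: log2 fold change in enrichment of variant over reference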
# Type: biochemical, human
# condition: sheet EPHB2; effect of variant peptide relative to its reference peptide in the pTyr-Var library screen (enrichment scores)
experimental.readout: Screen
In your answer, state the number alone without any accompanying words.

For orientation, consider the following solved cases.
sequence | experimental.readout | observed
TSSAVYMNLAS [GATAD2B_Y317_I316V] | Screen | -2.447
PSAELYSFALP [PDGFRB_Y716_N718Y_YF] | Screen | 2.567
HKDNNYISMWF [PAPOLG_Y432_V433I] | Screen | -1.118
NSNSDYVDILP [SH2D1B_Y127_V130I] | Screen | 0.0762
FAELVYTVFWH [ASS1_Y322_G324V] | Screen | 0.0379
QNTGFYFDLFG [PTPN11_Y62_D61Y_YF] | Screen | -4.029
EPFELYCEMGS [CBL_Y371_Q367P_YF] | Screen | -0.2507
LTERGYSFTTK [ACTG1_Y198_T203K] | Screen | 1.886

Query :: Quick check: Screen of LDVGEYCVPRG [BEX1_Y43_A40V] ?
Result :: -0.4602

Query :: So what's the measured Screen for this one? KAPPTYDNVLQ [CYP3A4_Y347_T349N]
Result :: -1.141

Query :: Given VATRWYWSPEL [CDKL5_Y177_R178W] , state its recorded Screen.
Result :: 2.978

Query :: Please report the recorded Screen for IMNLLYHVVGW [GBA_Y412_T408M] .
Result :: -0.4774

Query :: Recorded Screen for ISKTWYSAEQF [CD207_Y217_P213S] , please?
Result :: -0.7343

Query :: Which Screen reading was recorded for the sequence MARDIYQASFF [LTK_Y672_R673Q_YF] ?
Result :: 1.961

Query :: I'd like to know its Screen. The sequence in question is SMEGLYSSAQD [CLIC5_Y111_T114A]
Result :: -0.2512

Query :: What does the data say about its Screen? Entry: KELALYDENWF [RPS19_Y48_P47L]
Result :: 4.277
